// provenance: patent US20240270821A1

Measured log10 of EC50 of individual entries
Biological target: hGLP-1R (Homo sapiens, UniProt P43220)
Sequence (P43220 24-463): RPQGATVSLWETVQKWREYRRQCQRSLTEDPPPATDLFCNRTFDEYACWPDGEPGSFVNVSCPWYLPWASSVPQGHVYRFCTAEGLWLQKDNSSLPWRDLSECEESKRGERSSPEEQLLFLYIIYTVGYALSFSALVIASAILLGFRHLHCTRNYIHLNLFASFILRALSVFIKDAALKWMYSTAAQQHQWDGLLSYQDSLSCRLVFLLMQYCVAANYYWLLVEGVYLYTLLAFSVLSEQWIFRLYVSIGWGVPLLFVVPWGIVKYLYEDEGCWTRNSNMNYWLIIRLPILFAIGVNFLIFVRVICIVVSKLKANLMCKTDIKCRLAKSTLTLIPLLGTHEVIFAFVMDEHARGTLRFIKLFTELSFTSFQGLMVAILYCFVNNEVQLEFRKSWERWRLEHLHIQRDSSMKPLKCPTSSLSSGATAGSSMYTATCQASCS
Test: Functional cAMP activity in the presence of 1% HSA
Type: cell-based
Conditions: read-out: cAMP Rel EC50, hGLP-1R
Starred links: 1 amine or outer side, 2 acyl side, 3 side chain; linkers in the order of their positions; H or OH if unused. Non-standard residues stand in square brackets, D forms with d. Groups on a side chain read outwards from the residue. *: point of attachment. C18 diacid = O=C(O)CCCCCCCCCCCCCCCCC(=O)*; αMePhe(2-F) = C[C@](N)(Cc1ccccc1F)C(=O)O; γGlu = O=C(O)[C@H](CCC(=O)[*:2])N[*:1]; αMe4Pal = C[C@](N)(Cc1ccncc1)C(=O)O; αMeY = C[C@](N)(Cc1ccc(O)cc1)C(=O)O; 4Pal = N[C@@H](Cc1ccncc1)C(=O)O; αMeL = CC(C)C[C@](C)(N)C(=O)O; αMeS = C[C@](N)(CO)C(=O)O; Orn = NCCC[C@H](N)C(=O)O; AEEA = NCCOCCOCC(=O)O; Aib = CC(C)(N)C(=O)O
Note the log scale: values are log10 of EC50 expressed in nM.

Below, each entry is followed by its recorded log10 of EC50 result.
INSERT INTO measurements (substance, measured_value) VALUES
  ('H-Y[Aib]QGTFTSD[4Pal]SQ[αMeL]LD[Orn]K([γGlu-γGlu-C18 diacid])AQ[αMe4Pal]AFIEYLIAGGPSSGEPPPSGSE-NH2 [Example 1008]', 2.10),
  ('H-Y[Aib]QGT[αMePhe(2-F)]TSD[4Pal][αMeS]I[αMeL]LD[Orn]K([γGlu-γGlu-C18 diacid])AQ[αMe4Pal]EFI[dE][αMeY]LVEGGPSSGEPPPSGGGE-NH2 [Example 739]', 1.43),
  ('H-Y[Aib]QGTFTSDFS[Orn][αMeL]LDKK([AEEA-γGlu-C18 diacid])AQ[Aib]AFIE[4Pal]LLEGGPSSGAPPPGGS-NH2 [Example 496]', 3.17);

[Q] Name the recorded log10 of EC50 of the substance listed here: H-Y[Aib]QGT[αMePhe(2-F)]TSD[4Pal][αMeS]I[αMeL]LD[Orn]K([AEEA-γGlu-γGlu-C18 diacid])AQ[αMe4Pal]EFI[dE][αMeY]LIEGGPSSGAPPPSGSE-NH2 [Example 1178]
[A] 1.59

[Q] Name the recorded log10 of EC50 of the substance listed here: H-Y[Aib]QGTFTSDFS[Orn][αMeL]LDKK([AEEA-γGlu-C18 diacid])AQ[Aib]AFIEYLIE[Aib]GESSGAPPPSGS-NH2 [Example 218]
[A] 2.18
